- METHOD_SUMMARY: P. berghei load reduction in hepatocytes – cell-based, HepG2, luciferase luminescence, HepG2 viability, primary screen (AID 624349);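 further: 100% = mean of DMSO negative control wells on the same plate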
- ASSAY_SETUP: P. berghei liver stage in HepG2, luciferase luminescence, concentration not given here; hits give low values
Reported parasite load remaining values for a set of compounds
READOUT: parasite load remaining (%)

compound="CC[N+]1(C)[C@@H]2CC[C@H]1CC(OC(=O)[C@H]1CCC(C(=O)OC3C[C@H]4CC[C@@H](C3)[N+]4(C)CC)(c3ccccc3)c3ccccc31)C2 (stereo partly drawn)" recorded_measurement=96.6
compound="N#C/C(=C(/N)Sc1ccccc1N)c1cccc(C(O)c2ccncc2)c1 (stereo not drawn)" recorded_measurement=49.2
compound=CCCC(=O)Oc1ccc2[nH]c(C(=O)c3cc4ccccc4[nH]3)cc2c1 recorded_measurement=38.9
compound=O=C(O)C=Cc1ccc(O)c(O)c1 recorded_measurement=59.8
compound=Cc1nc2cc3nc(-c4cccs4)cnc3cc2n1C recorded_measurement=6.62
compound="OCC(O)CCO/N=C1/C(c2c(O)[nH]c3ccccc23)=Nc2ccccc21 (stereo not drawn)" recorded_measurement=25.4
compound="CC12CCC3c4ccc(OC(=O)c5ccccc5)cc4CCC3C1CCC2O (stereo not drawn)" recorded_measurement=35.5
compound="CCOC(=O)Oc1c(OC)cc(C(=O)OC2CC3CN4CCc5c([nH]c6cc(OC)ccc56)C4CC3C(C(=O)OC)C2OC)cc1OC (stereo not drawn)" recorded_measurement=55.8
compound="O=C(OC1CC2CC3C[C@@H](C1)N2CC3=O)c1c[nH]c2ccccc12 (stereo partly drawn)" recorded_measurement=57.9
compound=CC[n+]1c(/C=C/N(C)c2ccccc2)n(-c2ccccc2)c2ccc(-c3nc4ccccc4s3)cc21 recorded_measurement=33.2
compound=c1ccc(-c2[nH]ncc2-c2ccnc3ccccc23)nc1 recorded_measurement=38
compound=COc1ccc2c3c([nH]c2c1)[C@H]1C[C@H]2[C@H](C[C@@H](O)[C@H](OC)[C@H]2C(=O)O)CN1CC3 recorded_measurement=113
compound="CC[C@H]1OC(=O)[C@H](C)[C@@H](O[C@H]2C[C@@](C)(OC)[C@@H](O)[C@H](C)O2)[C@H](C)[C@@H](O[C@@H]2O[C@H](C)C[C@H](N(C)C)[C@H]2O)C(C)(O)C[C@@H](C)CN(C)[C@H](C)[C@@H](O)[C@]1(C)O (stereo partly drawn)" recorded_measurement=18.4
compound=CC(C)(C)C(=O)OCOC(=O)[C@@H]1N2C(=O)[C@@H](N=CN3CCCCCC3)[C@H]2SC1(C)C recorded_measurement=86.3
compound=CNCCNS(=O)(=O)c1cccc2cnccc12 recorded_measurement=51
compound=COc1cc(Nc2ncc3ccn(-c4cccc(CCC#N)c4)c3n2)cc(OC)c1OC recorded_measurement=50.6
compound=CC(=O)N[C@@H](Cc1c[nH]c2ccccc12)C(=O)O recorded_measurement=106
compound="C[C@@H]1C(=O)O[C@H]2CC34[C@H]5C[C@@H](C(C)(C)C)[C@]36[C@@H](OC(=O)[C@@H]6O)O[C@@]4(C(=O)O5)[C@]21O (stereo partly drawn)" recorded_measurement=93.7
